The measurements presented in this section are drawn from PubChem BioAssay AID1159580.

Experimental protocol: chemical genetic growth profiling, strain panel (AID 1159580);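 also: tested at 20 µM; growth read once vehicle control cultures reached saturation at 30 °C; 1 = growth at the plate median or of vehicle wells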
Details: S. cerevisiae deletion strains, growth OD, locus YGR135W, strain pre9, stronger effect = lower value
Out of some 5,500 compounds screened, about 2,000 (36%) were called active. Not shown: some 18% with an inconclusive outcome. This is one part of the list.
Note to self: use satisfied only for normalized growth readings below 1; a reading exactly at 1 still gets not satisfied.

Request: # strict comparison: is reported normalized growth < 1? input = C#CC1(O)CCC2C3CCC4=CC(=O)CCC4(C)C3CCC21C (configuration not stated)
Response: satisfied

Request: Quick check: normalized growth of O=c1oc2c(O)c(O)cc3c(=O)oc4c(O)c(O)cc1c4c23 under 1?
Response: satisfied

Request: # strict comparison: is reported normalized growth < 1? input = O=C(O)c1cc([N+](=O)[O-])ccc1NCCCc1ccccc1
Response: satisfied

Request: Report whether reported normalized growth is lower than 1 (strictly) for CCCc1nc2c(C)cc(-c3nc4ccccc4n3C)cc2n1Cc1ccc(-c2ccccc2C(=O)O)cc1
Response: not satisfied

Request: Is the reported normalized growth for CCC1(CC)C(=O)C=CNC1=O strictly below 1?
Response: not satisfied

Request: Confirm or reject: normalized growth of O=C(O)c1cc(=O)c2c(Cl)cc(Cl)cc2[nH]1 lies strictly below 1
Response: not satisfied

Request: Record CC(=O)NO : is its normalized growth strictly below 1?
Response: satisfied

Request: Consider COC(=O)[C@]1(C)CC[C@]2(C)CC[C@]3(C)C4=CC=C5C(=CC(=O)C(O)=C5C)[C@]4(C)CC[C@@]3(C)[C@@H]2C1 . Does its normalized growth lie strictly below 1?
Response: satisfied

* * *

Experimental protocol: chemical genetic growth profiling, strain panel (AID 1159580);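 also: tested at 20 µM; growth read once vehicle control cultures reached saturation at 30 °C; 1 = growth at the plate median or of vehicle wells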
Details: S. cerevisiae deletion strains, growth OD, locus YFR019W, strain FAB1
Out of some 5,500 compounds screened, about 2,000 (36%) were called active. Another 18% or so got no clear call; they are omitted. No stated cut-off is given here; in the data, active means normalized growth mostly below about 0.91 (no sharp cut-off); inconclusive means no clear call, values can overlap the other calls; inactive means mostly above about 0.92. Some of the results follow.
Just give me one of these, please: yes (1) (active), no (0) (inactive)

CC(C)(C)c1ccc(C(=O)NNC(=S)Nc2ccc(Cl)cc2)cc1; no (0)

Request: Outcome logged for N#C/C(=N/Nc1cccc(C(F)(F)F)c1)C(=O)c1csc(-c2cccnc2)n1 in this assay:
Response: yes (1)

Request: For COc1ccc(C2CC(c3ccc(C)cc3C)=NN2C(C)=O)cc1 (stereo not given) , what call appears in the results of this test?
Response: no (0)

Request: Dear all, I need the recorded test outcome for C/C(=N/NC(=O)c1ccc(C(C)(C)C)cc1)c1ccccc1O , thank you.
Response: no (0)

Request: Which outcome was assigned to O=c1c(-c2ccccc2)c(O)c2cccc3c4ccccc4n1c23 in this test?
Response: yes (1)

Request: Hey, what did the test say about O=C(c1cc2c(s1)-c1ccccc1CC2)N1CCN(Cc2ccccc2)CC1 ?
Response: no (0)

Request: Which outcome was entered for the compound S=C(Nc1ccc(Cl)cc1)Nc1ccc(Cl)cc1 in this test?
Response: no (0)

Request: Returns: the outcome recorded for CCOC(=O)c1cnc2c(c(C)nn2C)c1Sc1nnc(SC)s1 in this assay.
Response: yes (1)

Request: // return assay outcome for CC(C)(C)C(=O)c1sc2sc(C(=O)C(C)(C)C)c(N)c2c1N
Response: yes (1)

Request: Dear colleague, could you share the recorded outcome for S=C(N/N=C\c1cccs1)NC1CC2CCC1C2 (stereo not given) when you have a moment?
Response: no (0)
